Biological target: T1, nfP2X7 CAR 1
T1 construct: CAR-positive cells gated by the co-expressed EGFR marker; also called nfP2X7 targeted CAR; nfP2X7 CAR on EGFR+ T cells
Assay: flow cytometry, anti-His-FITC, MFI on EGFR+ (CAR+) T cells over background 0.44
Lab note: compare HisTag MFI Ratio (background 0.44) against 5. Equal or greater, write True. Smaller, write False.

Worked set:
# BINDER, DISCRETE LABEL
rows = [
    ("CD19 BRIDGE variant B3 (Fab, V domains shown) VH: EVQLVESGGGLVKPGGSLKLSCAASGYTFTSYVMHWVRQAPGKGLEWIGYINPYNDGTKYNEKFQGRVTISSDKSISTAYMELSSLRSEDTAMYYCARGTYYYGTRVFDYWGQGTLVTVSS VL: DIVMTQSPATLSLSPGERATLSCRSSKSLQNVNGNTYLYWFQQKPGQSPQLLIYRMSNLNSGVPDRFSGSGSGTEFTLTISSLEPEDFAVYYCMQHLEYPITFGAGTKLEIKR", "False"),
    ("CD19 BRIDGE variant B1 (Fab, V domains shown) VH: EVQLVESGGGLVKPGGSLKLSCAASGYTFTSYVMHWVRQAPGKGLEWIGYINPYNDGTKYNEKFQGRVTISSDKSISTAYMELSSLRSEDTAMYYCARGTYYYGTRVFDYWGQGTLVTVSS VL: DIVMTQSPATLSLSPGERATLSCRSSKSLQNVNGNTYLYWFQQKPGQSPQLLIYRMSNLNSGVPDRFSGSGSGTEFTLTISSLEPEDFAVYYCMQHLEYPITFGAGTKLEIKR", "False"),
    ("CD19 BRIDGE variant B25 (Fab, V domains shown) VH: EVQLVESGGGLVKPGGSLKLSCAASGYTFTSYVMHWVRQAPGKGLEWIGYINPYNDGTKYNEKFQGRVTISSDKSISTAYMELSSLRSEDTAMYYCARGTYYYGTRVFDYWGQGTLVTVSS VL: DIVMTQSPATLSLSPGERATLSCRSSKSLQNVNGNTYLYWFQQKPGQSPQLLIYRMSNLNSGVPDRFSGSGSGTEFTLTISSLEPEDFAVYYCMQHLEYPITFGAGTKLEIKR", "True"),
]

Shifting focus to the binder that follows.
I'd appreciate it if you could say whether CD19 BRIDGE variant B14 (Fab, V domains shown) VH: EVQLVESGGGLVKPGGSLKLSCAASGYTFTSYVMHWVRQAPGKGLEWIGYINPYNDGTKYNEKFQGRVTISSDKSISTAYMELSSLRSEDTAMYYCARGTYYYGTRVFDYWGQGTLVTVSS VL: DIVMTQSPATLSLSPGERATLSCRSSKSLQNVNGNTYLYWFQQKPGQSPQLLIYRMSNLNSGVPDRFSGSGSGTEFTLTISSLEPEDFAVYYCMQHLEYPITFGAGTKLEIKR has HisTag MFI Ratio (background 0.44) at least equal to 5.
True
